assay summary: FACETS (011) population PK from sparse blood sampling in Fabry patients
Format: in vivo, human
experimental parameters: human, plasma, 150 mg; 011 PPK (CLcr ≥30-≥90 mL/min), N 62, QOD regimen; read-out: Cmax, Geometric mean (CV %)
property measured: Cmax (ng/mL)
Write it as a number; the unit ng/mL goes unstated.

Qu. Requested read-out: Cmax. Entry: OC[C@H]1NC[C@H](O)[C@@H](O)[C@H]1O [migalastat]
Ans. 1180

---

assay summary: Pharmacokinetics of migalastat HCl in a Fabry patient with severe renal impairment (P3, 2004-5029; Example 6)
Format: in vivo, human
experimental parameters: human, plasma, Plasma Migalastat Conc, Fabry patient P3, Mar ′11, 4 h
property measured: concentration at 4 h (ng/mL)
Write it as a number; the unit ng/mL goes unstated.

Qu. Requested read-out: concentration at 4 h. Entry: OC[C@H]1NC[C@H](O)[C@@H](O)[C@H]1O
Ans. 1570

---

assay summary: FACETS (011) population PK from sparse blood sampling in Fabry patients
Format: in vivo, human
experimental parameters: human, plasma, 150 mg, FACETS population PK, 150 mg QOD; read-out: PPK Cmin
Protocol: One or more of the dosing regimens described herein are particularly suitable for Fabry patients who have some degree of renal impairment. […] FACETS (011, NCT00925301) was a 24-month trial, including a 6-month double-blind, placebo-controlled period, in 67 enzyme replacement therapy (ERT)-naive patients. […] Thus, two Fabry patients with renal impairment were evaluated. […]
property measured: concentration at 48 h (ng/mL)
Write it as a number; the unit ng/mL goes unstated.

Qu. Requested read-out: concentration at 48 h. Entry: OC[C@H]1NC[C@H](O)[C@@H](O)[C@H]1O [migalastat]
Ans. 8.7

---

assay summary: Pharmacokinetics of migalastat HCl in a Fabry patient with severe renal impairment (P3, 2004-5029; Example 6)
Type: in vivo, human
experimental parameters: human, plasma, Plasma Migalastat Conc, Fabry patient P3, May ′17 (Q4D), 48 h
property measured: concentration at 48 h (µg/mL)
Write it as a number; the unit µg/mL goes unstated.

Qu. Requested read-out: concentration at 48 h. Entry: OC[C@H]1NC[C@H](O)[C@@H](O)[C@H]1O
Ans. 0.0774

---

assay summary: Phase 1 single-dose pharmacokinetics and safety study of migalastat HCl in non-Fabry subjects with renal impairment (Example 1, AT1001-015)
Assay type: in vivo, human
experimental parameters: human, plasma, po, 150 mg, single oral 150 mg migalastat HCl, non-Fabry subjects, renal function group Mild (N = 8)
property measured: Cmax (ng/mL)
Write it as a number; the unit ng/mL goes unstated.

Qu. Requested read-out: Cmax. Entry: OC[C@H]1NC[C@H](O)[C@@H](O)[C@H]1O [migalastat]
Ans. 2190

---

assay summary: Pharmacokinetics of migalastat HCl in a Fabry patient with severe renal impairment (P3, 2004-5029; Example 6)
Format: in vivo, human
experimental parameters: human, plasma, Plasma Migalastat Conc, Fabry patient P3, Mar ′11, 8 h
property measured: concentration at 8 h (ng/mL)
Write it as a number; the unit ng/mL goes unstated.

Qu. Requested read-out: concentration at 8 h. Entry: OC[C@H]1NC[C@H](O)[C@@H](O)[C@H]1O
Ans. 802

---

assay summary: Phase 1 single-dose pharmacokinetics and safety study of migalastat HCl in non-Fabry subjects with renal impairment (Example 1, AT1001-015)
Type: in vivo, human
experimental parameters: human, plasma, oral, 150 mg, NCA SD Data, single 150 mg migalastat HCl; Geometric Mean of the 11 subjects
property measured: AUC(0-inf) (ng·h/mL)
Write it as a number; the unit ng·h/mL goes unstated.

Qu. Requested read-out: AUC(0-inf). Entry: OC[C@H]1NC[C@H](O)[C@@H](O)[C@H]1O
Ans. 47600

---

assay summary: Phase 1 single-dose pharmacokinetics and safety study of migalastat HCl in non-Fabry subjects with renal impairment (Example 1, AT1001-015)
Format: in vivo, human
experimental parameters: human, plasma, po, 150 mg, single oral 150 mg migalastat HCl, non-Fabry subjects, renal function group Moderate (N = 8)
property measured: AUC(0-t) (ng·h/mL)
Write it as a number; the unit ng·h/mL goes unstated.

Qu. Requested read-out: AUC(0-t). Entry: OC[C@H]1NC[C@H](O)[C@@H](O)[C@H]1O
Ans. 22100

---

assay summary: Pharmacokinetics of migalastat HCl in a Fabry patient with severe renal impairment (P3, 2004-5029; Example 6)
Type: in vivo, human
experimental parameters: human, plasma, Plasma Migalastat Conc, Fabry patient P3, May ′17 (Q4D), 8 h
property measured: concentration at 8 h (µg/mL)
Write it as a number; the unit µg/mL goes unstated.

Qu. Requested read-out: concentration at 8 h. Entry: OC[C@H]1NC[C@H](O)[C@@H](O)[C@H]1O
Ans. 1.38

---

assay summary: Phase 1 single-dose pharmacokinetics and safety study of migalastat HCl in non-Fabry subjects with renal impairment (Example 1, AT1001-015)
Format: in vivo, human
experimental parameters: human, plasma, po, 150 mg, single oral 150 mg migalastat HCl, non-Fabry subjects, renal function group Moderate (N = 8)
property measured: Cmax (ng/mL)
Write it as a number; the unit ng/mL goes unstated.

Qu. Requested read-out: Cmax. Entry: OC[C@H]1NC[C@H](O)[C@@H](O)[C@H]1O
Ans. 1870

---

assay summary: Phase 1 single-dose pharmacokinetics and safety study of migalastat HCl in non-Fabry subjects with renal impairment (Example 1, AT1001-015)
Format: in vivo, human
experimental parameters: human, plasma, oral, 150 mg, AT1001-015; Normal (CLcr ≥90 mL/min), N 8; read-out: C48 h, Mean
property measured: concentration at 48 h (ng/mL)
Write it as a number; the unit ng/mL goes unstated.

Qu. Requested read-out: concentration at 48 h. Entry: OC[C@H]1NC[C@H](O)[C@@H](O)[C@H]1O [migalastat]
Ans. 5.7

---

assay summary: Pharmacokinetics of migalastat HCl in a Fabry patient with severe renal impairment (P3, 2004-5029; Example 6)
Format: in vivo, human
experimental parameters: human, plasma, Plasma Migalastat Conc, Fabry patient P3, May ′17 (Q4D), 4 h
property measured: concentration at 4 h (ng/mL)
Write it as a number; the unit ng/mL goes unstated.

Qu. Requested read-out: concentration at 4 h. Entry: OC[C@H]1NC[C@H](O)[C@@H](O)[C@H]1O
Ans. 1970

---

assay summary: Pharmacokinetics of migalastat HCl in a Fabry patient with severe renal impairment (P3, 2004-5029; Example 6)
Format: in vivo, human
experimental parameters: human, plasma, Plasma Migalastat Conc, Fabry patient P3, Feb ′15, 48 h
property measured: concentration at 48 h

Qu. Requested read-out: concentration at 48 h. Entry: OC[C@H]1NC[C@H](O)[C@@H](O)[C@H]1O
Ans. 41.8 ng/mL

---

assay summary: FACETS (011) population PK from sparse blood sampling in Fabry patients
Assay type: in vivo, human
experimental parameters: human, plasma, 150 mg; 011 PPK (CLcr ≥30-≥90 mL/min), N 62, QOD regimen; read-out: AUC0-t, Geometric mean
property measured: AUC(0-t) (ng·h/mL)
Write it as a number; the unit ng·h/mL goes unstated.

Qu. Requested read-out: AUC(0-t). Entry: OC[C@H]1NC[C@H](O)[C@@H](O)[C@H]1O
Ans. 9030

---

assay summary: FACETS (011) population PK from sparse blood sampling in Fabry patients
Format: in vivo, human
experimental parameters: human, plasma, 150 mg; 011 PPK (CLcr ≥30-≥90 mL/min), N 62, QOD regimen; read-out: t1/2, Mean (converted)
property measured: half-life (h)
Write it as a number; the unit h goes unstated.

Qu. Requested read-out: half-life. Entry: OC[C@H]1NC[C@H](O)[C@@H](O)[C@H]1O [migalastat]
Ans. 20.6

---

assay summary: Phase 1 single-dose pharmacokinetics and safety study of migalastat HCl in non-Fabry subjects with renal impairment (Example 1, AT1001-015)
Type: in vivo, human
experimental parameters: human, plasma, po, 150 mg, single oral 150 mg migalastat HCl, non-Fabry subjects, renal function group Severe (N = 8)
property measured: AUC(0-t) (ng·h/mL)
Write it as a number; the unit ng·h/mL goes unstated.

Qu. Requested read-out: AUC(0-t). Entry: OC[C@H]1NC[C@H](O)[C@@H](O)[C@H]1O
Ans. 53100
